B1: CLCN6 (parent)
chain: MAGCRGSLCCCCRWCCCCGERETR

# Variants of: B1
# test: protein stability index of a GFP-peptide fusion (GPS, HEK-293T) (PSI 1-6); higher = more stable;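 also: lentivirally expressed fusions sorted by FACS into six bins by GFP to DsRed ratio, PSI derived from sequencing read proportions per bin multiplied by bin number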
# details: c terminus: a fixed tail appended
Please respond with reported protein stability index for every item in the list.
Answer as a number with no unit attached.

Lookup result for "E22R" ; measured protein stability index: 1.69

Lookup result for "R13G" ; measured protein stability index: 2.27

Lookup result for "R24C" ; measured protein stability index: 3.05

Lookup result for "E22N" ; measured protein stability index: 1.48

Lookup result for "A2K" ; measured protein stability index: 2.68

Lookup result for "C4E" ; measured protein stability index: 2.58

Lookup result for "G19C" ; measured protein stability index: 1.83

Lookup result for "C11M" ; measured protein stability index: 1.84

Lookup result for "C9Y" ; measured protein stability index: 1.69

Lookup result for "G19N" ; measured protein stability index: 1.44

Lookup result for "G3N" ; measured protein stability index: 1.5

Lookup result for "R21M" ; measured protein stability index: 1.08

Lookup result for "C15H" ; measured protein stability index: 2.6

Lookup result for "R5P" ; measured protein stability index: 1.29

Lookup result for "G19T" ; measured protein stability index: 2.02

Lookup result for "E20H" ; measured protein stability index: 1.56

Lookup result for "C9P" ; measured protein stability index: 1.69

Lookup result for "A2L" ; measured protein stability index: 1.33

Lookup result for "C11R" ; measured protein stability index: 1.97

Lookup result for "C15N" ; measured protein stability index: 1.76

Lookup result for "T23D" ; measured protein stability index: 2.15

Lookup result for "E20T" ; measured protein stability index: 1.01

Lookup result for "E20I" ; measured protein stability index: 1.55

Lookup result for "C9H" ; measured protein stability index: 3.07

Lookup result for "C10Y" ; measured protein stability index: 1.88

Lookup result for "C4L" ; measured protein stability index: 2.74

Lookup result for "C17K" ; measured protein stability index: 1.89

Lookup result for "R21E" ; measured protein stability index: 2.27

Lookup result for "E22C" ; measured protein stability index: 1.89

Lookup result for "R13E" ; measured protein stability index: 2.4

Lookup result for "G6Y" ; measured protein stability index: 1.89

Lookup result for "C9G" ; measured protein stability index: 2.23

Lookup result for "C15I" ; measured protein stability index: 1.87

Lookup result for "C17Q" ; measured protein stability index: 1.09

Lookup result for "C9T" ; measured protein stability index: 2.16

Lookup result for "T23W" ; measured protein stability index: 2.78

Lookup result for "R13C" ; measured protein stability index: 2.02

Lookup result for "C4S" ; measured protein stability index: 1.69

Lookup result for "G19K" ; measured protein stability index: 1.8

Lookup result for "C11A" ; measured protein stability index: 2.42

Lookup result for "L8R" ; measured protein stability index: 2.16

Lookup result for "C9A" ; measured protein stability index: 3.15

Lookup result for "R13V" ; measured protein stability index: 1.78

Lookup result for "E20A" ; measured protein stability index: 1.96

Lookup result for "S7I" ; measured protein stability index: 2.55

Lookup result for "G3I" ; measured protein stability index: 1.44

Lookup result for "S7C" ; measured protein stability index: 2.52

Lookup result for "C18S" ; measured protein stability index: 2.47

Lookup result for "C4R" ; measured protein stability index: 2.33

Lookup result for "C9I" ; measured protein stability index: 1.76

Lookup result for "C17A" ; measured protein stability index: 2.48

Lookup result for "R5T" ; measured protein stability index: 1.44

Lookup result for "E22T" ; measured protein stability index: 2.09

Lookup result for "R24F" ; measured protein stability index: 1.79

Lookup result for "G6L" ; measured protein stability index: 1.32

Lookup result for "C16D" ; measured protein stability index: 2.66

Lookup result for "S7R" ; measured protein stability index: 1.37

Lookup result for "C11Y" ; measured protein stability index: 2

Lookup result for "G3F" ; measured protein stability index: 2.11

Lookup result for "T23S" ; measured protein stability index: 2.36

Lookup result for "G3D" ; measured protein stability index: 1.8

Lookup result for "S7F" ; measured protein stability index: 1.91

Lookup result for "M1N" ; measured protein stability index: 1.56

Lookup result for "M1L" ; measured protein stability index: 1.39

Lookup result for "C17W" ; measured protein stability index: 2.41

Lookup result for "E22H" ; measured protein stability index: 1.73

Lookup result for "C17E" ; measured protein stability index: 1.8

Lookup result for "C9R" ; measured protein stability index: 1.28

Lookup result for "G19Y" ; measured protein stability index: 2.41

Lookup result for "R5M" ; measured protein stability index: 1.38

Lookup result for "R21T" ; measured protein stability index: 2.77

Lookup result for "C17P" ; measured protein stability index: 1.8

Lookup result for "L8S" ; measured protein stability index: 1.22

Lookup result for "E22K" ; measured protein stability index: 1.49

Lookup result for "C12S" ; measured protein stability index: 1.96

Lookup result for "M1Q" ; measured protein stability index: 1.65

Lookup result for "S7T" ; measured protein stability index: 1.77

Lookup result for "C9N" ; measured protein stability index: 1.67

Lookup result for "E20G" ; measured protein stability index: 2.24

Lookup result for "C12H" ; measured protein stability index: 1.52

Lookup result for "R13T" ; measured protein stability index: 1.95

Lookup result for "S7L" ; measured protein stability index: 1.9

Lookup result for "W14L" ; measured protein stability index: 3.15

Lookup result for "R5Y" ; measured protein stability index: 3.45

Lookup result for "C18D" ; measured protein stability index: 2.77

Lookup result for "A2I" ; measured protein stability index: 2.07

Lookup result for "R5D" ; measured protein stability index: 1.38

Lookup result for "C17Y" ; measured protein stability index: 1.97

Lookup result for "C9Q" ; measured protein stability index: 2.64

Lookup result for "L8Q" ; measured protein stability index: 1.29

Lookup result for "E22I" ; measured protein stability index: 2.15

src = the supplement of paper PMC10567573
